- System: NF-κB
- Method: NFkB-luc reporter in HEK293 cells with empty vector control
- Assay type: cell-based, human
- Condition description: Homo sapiens, HEK293, 16 h, luciferase signal, read-out: Fold Increase Over DMSO Control, HEK 293 Vector
Observed property: fold induction at 10 µM

[[record]]
smiles_repr = "CCCCc1nc2c(N)nc3c(c2n1CC(C)C)NCCC3"
target_desc = "NF-κB"
observed_property = "fold induction at 10 µM"
test_value = 0.91

[[record]]
smiles_repr = "CCCCc1nc2c(N)nc3ccccc3c2n1CCNS(C)(=O)=O"
target_desc = "NF-κB"
observed_property = "fold induction at 10 µM"
test_value = 1.04

[[record]]
smiles_repr = "CCCCc1nc2c(N)nc3ccccc3c2n1CCCCNS(C)(=O)=O"
target_desc = "NF-κB"
observed_property = "fold induction at 10 µM"
test_value = 1.33

[[record]]
smiles_repr = "COCCc1nc2c(N)nc3ccccc3c2n1CCCCNC(=O)c1ccc(-n2cccc2)nc1"
target_desc = "NF-κB"
observed_property = "fold induction at 10 µM"
test_value = 1.31


Now turn to the next molecule.
get_value(item= CCCCc1nc2c(N)nc3cnccc3c2n1CC(C)C , readout=fold induction at 10 µM) returns 0.95

Values from patent US20040014779A1
